Multi-source literature compilation: IC50 on UniProtKB Q96KQ7.
endpoint: IC50 (nM)

>>> measured_result("COc1cc2c(NCc3ccn[nH]3)c3c(nc2cc1OCCCN1CCCC1)CCC3")
12
>>> measured_result("COc1cc2c(cc1OCCCN1CCCC1)[nH]c1cc(N)nc(C)c12")
4.5
>>> measured_result("COc1cc2c(cc1OCCCN1CCCC1)[nH]c1ccnc(N3CC[C@@H](O)C3)c12")
34
>>> measured_result("CCCc1nccc2[nH]c3cc(OCCCN4CCCC4)c(OC)cc3c12")
3.3
>>> measured_result("COc1cc2c(NCC3CC3)c3c(nc2cc1OCCCNS(N)(=O)=O)CCC3")
1950
>>> measured_result("COCCNc1c2c(nc3cc(OCCCN4CCCC4)c(OC)cc13)CCCCC2")
107
>>> measured_result("COc1cc2c(NCC3CC3)c3c(nc2cc1OCCOCCN(C)C)CCC3")
18.2
>>> measured_result("CNC(CCC(N)C(=O)O)CC1OC(n2cnc3c(N)ncnc32)C(O)C1O (stereo not drawn)")
165000
>>> measured_result("COc1cc2c(NC(C)C)c3c(nc2cc1OCCOCCN(C)C)CCC3")
17.4
>>> measured_result("COc1cc2c(NCC3CNC3)c3c(nc2cc1OCCCN1CCCC1)CCC3")
1.35
>>> measured_result("Nc1ncnc2c1ncn2C1OC(CC(CCC(N)C(=O)O)NCCNCCCCC(N)C(=O)O)C(O)C1O (stereo not drawn)")
32000
>>> measured_result("COc1cc2c(NC3CCN(C(C)C)CC3)c3c(nc2cc1OCCCN1CC[C@@H](OC)C1)CCC3")
6.46
>>> measured_result("COc1cc2c(NCC3CC3)c3c(nc2cc1OCC1(CN2CCCC2)COC1)CCC3")
1550
>>> measured_result("[2H]C([2H])([2H])Oc1cc2nc3c(c(N[C@@H]4CCCNC4)c2cc1OC([2H])([2H])[2H])CCC3")
12.6
>>> measured_result("COc1cc2c(NC[C@@H]3CCCO3)c3c(nc2cc1OCCCN1CCCC1)CCC3")
15.5
>>> measured_result("COc1cc2c(NCC3CC3)c3c(nc2cc1OCC(O)CN1CCCC1)CCC3 (stereo not drawn)")
40.7
>>> measured_result("CCOCCNc1nccc2[nH]c3cc(OCCCN4CCCC4)c(OC)cc3c12")
7
>>> measured_result("CCOCCNc1c2c(nc3cc(COCCN4CCCC4)c(OC)cc13)CCC2")
33.9
>>> measured_result("CCNc1c2c(nc3cc(OCCCN(C)CCF)c(OC)cc13)CCC2")
1050

###

Multi-source literature compilation: IC50 on Histone-lysine N-methyltransferase EHMT2 (Homo sapiens, UniProt Q96KQ7).
endpoint: IC50

>>> measured_result("CCOc1cc2nc3c(c(N[C@@H]4CCCNC4)c2cc1OCC)CCC3")
"> 10 µM"
>>> measured_result("COc1cc2nc3c(c(N[C@H]4CNCC(F)(F)C4)c2cc1OC)CCC3")
"> 10 µM"
>>> measured_result("COc1cc2nc3c(c(N[C@@H]4CNCC(F)(F)C4)c2cc1OC)CCC3")
"> 10 µM"
>>> measured_result("CC(C)(C)c1ccc(NC(=O)NCCC[C@H](CNCc2ccccc2)C[C@H]2O[C@@H](n3cnc4c(N)ncnc43)C(O)C2O)cc1 (some centres unmarked)")
"> 50 µM"
>>> measured_result("COC(=O)C(N)CCC(CC1OC(n2cnc3c(N)ncnc32)C(O)C1O)NCCNC(=N)N (centres unmarked)")
"> 100 µM"
